- Tested on: HCT 116 cells
- runDescription: CellTiter-Glo assay in HCT 116 cells (cell viability)
- Format: cell-based
- conditionSummary: 120 h; HCT 116 human colon carcinoma cells, 5 days incubation, CellTiter-Glo luminescence

compound | IC50
CCN1C(=O)C(C)(C)c2cc3nc(-c4n[nH]c5cc(-c6ccsc6)ccc45)[nH]c3cc21 [Example 4] | 25 to 1500 nM
CCN1C(=O)C(C)(C)c2cc3nc(-c4n[nH]c5ccc(-c6cccc(N(C)C)c6)cc45)[nH]c3cc21 [Example 29] | 25 to 1500 nM
CCN1C(=O)C(C)(C)c2cc3nc(-c4n[nH]c5cc(/C=C/c6ccc(Cl)cc6)ccc45)[nH]c3cc21 [Example 18] | 25 to 1500 nM
CCN1C(=O)C(C)(C)c2cc3nc(-c4n[nH]c5cc(/C=C/c6ccc(OC)cc6)ccc45)[nH]c3cc21 [Example 10] | 25 to 1500 nM
CCN1C(=O)C(C)(C)c2cc3nc(-c4n[nH]c5cc(/C=C/c6ccc(-c7ccccc7)cc6)ccc45)[nH]c3cc21 [Example 9] | 25 to 1500 nM
CCN1C(=O)C(C)(C)c2cc3nc(-c4n[nH]c5cc(/C=C/C6CCCCC6)ccc45)[nH]c3cc21 [Example 19] | 25 to 1500 nM
CCN1C(=O)C(C)(C)c2cc3nc(-c4n[nH]c5ccc(-c6nc[nH]n6)cc45)[nH]c3cc21 [Example 1] | 25 to 1500 nM

###

- testedOn: UniProt O14965
- Sequence (O14965 whole entry T288D, form open): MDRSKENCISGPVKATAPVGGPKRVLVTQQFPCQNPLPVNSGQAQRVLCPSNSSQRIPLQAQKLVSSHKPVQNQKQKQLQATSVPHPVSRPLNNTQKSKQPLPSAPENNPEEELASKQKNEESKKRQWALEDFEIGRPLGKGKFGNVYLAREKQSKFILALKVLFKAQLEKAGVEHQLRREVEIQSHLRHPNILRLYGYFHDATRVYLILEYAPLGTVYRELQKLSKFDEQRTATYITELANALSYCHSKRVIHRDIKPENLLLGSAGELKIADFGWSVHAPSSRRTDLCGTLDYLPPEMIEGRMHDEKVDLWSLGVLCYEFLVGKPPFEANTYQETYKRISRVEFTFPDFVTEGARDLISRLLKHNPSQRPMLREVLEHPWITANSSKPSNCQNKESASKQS
- runDescription: IC50 determination for inhibitors of Aurora A (ELISA-type kinase assay, GST-Histone H3 substrate)
- conditionSummary: mutant Aurora A kinase, 30 μM ATP, 40 minutes, read-out: IC50 Aurora A kinase inhibition
pIC50: −log10 of the molar value.
Note to self: values exactly at 8 are 1 (yes). So pIC50 at or above 8 is 1 (yes), below is 0 (no).

molecule | classification
CCN1C(=O)C(C)(C)c2cc3nc(-c4n[nH]c5cc(-c6ccsc6)ccc45)[nH]c3cc21 [Example 4] | 0 (no)
CCN1C(=O)C(C)(C)c2cc3nc(-c4n[nH]c5cc(/C=C/c6ccc(F)cc6)ccc45)[nH]c3cc21 [Example 6] | 0 (no)
CCN1C(=O)C(C)(C)c2cc3nc(-c4n[nH]c5ccc(-c6nc[nH]n6)cc45)[nH]c3cc21 [Example 1] | 1 (yes)
CCN1C(=O)C(C)(C)c2cc3nc(-c4n[nH]c5cc(/C=C/C6CCCCC6)ccc45)[nH]c3cc21 [Example 19] | 0 (no)
CCN1C(=O)C(C)(C)c2cc3nc(-c4n[nH]c5cc(/C=C/c6ccc(C(F)(F)F)cc6)ccc45)[nH]c3cc21 [Example 11] | 0 (no)

###

- Test system: HCT 116 cells
- runDescription: CellTiter-Glo assay in HCT 116 cells (cell viability)
- Assay type: cell-based
- conditionSummary: 120 h; HCT 116 human colon carcinoma cells, 5 days incubation, CellTiter-Glo luminescence
IC50 listing for selected compounds.

compound | IC50
CCN1C(=O)C(C)(C)c2cc3nc(-c4n[nH]c5cc(-c6cccs6)ccc45)[nH]c3cc21 [Example 16] | 0.025 to 1.5 µM
CCN1C(=O)C(C)(C)c2cc3nc(-c4n[nH]c5cc(-c6ccc7c(c6)OCO7)ccc45)[nH]c3cc21 [Example 20] | 0.562 µM
CCN1C(=O)C(C)(C)c2cc3nc(-c4n[nH]c5ccc(-c6ccsc6)cc45)[nH]c3cc21 [Example 25, acetic acid] | 0.025 to 1.5 µM
CCN1C(=O)C(C)(C)c2cc3nc(-c4n[nH]c5cc(-c6cn[nH]c6)ccc45)[nH]c3cc21 [Example 37] | 0.025 to 1.5 µM
CCN1C(=O)C(C)(C)c2cc3nc(-c4n[nH]c5cc(/C=C/c6ccc(F)cc6)ccc45)[nH]c3cc21 [Example 6] | 0.025 to 1.5 µM
CCN1C(=O)C(C)(C)c2cc3nc(-c4n[nH]c5ccc(-c6cccnc6)cc45)[nH]c3cc21 [Example 27] | 0.025 to 1.5 µM
CCN1C(=O)C(C)(C)c2cc3nc(-c4n[nH]c5cc(/C=C/c6ccccc6)ccc45)[nH]c3cc21 [Example 5] | 0.576 µM
CCN1C(=O)C(C)(C)c2cc3nc(-c4n[nH]c5cc(-c6cccc(N(C)C)c6)ccc45)[nH]c3cc21 [Example 21] | 0.025 to 1.5 µM
CCN1C(=O)C(C)(C)c2cc3nc(-c4n[nH]c5cc(-c6ccc(OC)nc6)ccc45)[nH]c3cc21 [Example 14] | 0.025 to 1.5 µM
CCN1C(=O)C(C)(C)c2cc3nc(-c4n[nH]c5cc(-c6ccc(N(C)C)cc6)ccc45)[nH]c3cc21 [Example 12] | 0.025 to 1.5 µM
CCN1C(=O)C(C)(C)c2cc3nc(-c4n[nH]c5cc(-c6ccc(C(C)=O)cc6)ccc45)[nH]c3cc21 [Example 13] | 0.328 µM
CCN1C(=O)C(C)(C)c2cc3nc(-c4n[nH]c5ccc(-c6ccc(OC)nc6)cc45)[nH]c3cc21 [Example 24, acetic acid] | 0.025 to 1.5 µM
CCN1C(=O)C(C)(C)c2cc3nc(-c4n[nH]c5cc(C#Cc6ccccc6)ccc45)[nH]c3cc21 [Example 38] | 0.025 to 1.5 µM
CCN1C(=O)C(C)(C)c2cc3nc(-c4n[nH]c5cc(-c6nc[nH]n6)ccc45)[nH]c3cc21 [Example 2] | 0.025 to 1.5 µM
CCN1C(=O)C(C)(C)c2cc3nc(-c4n[nH]c5cc(-c6cccnc6)ccc45)[nH]c3cc21 [Example 8] | 0.161 µM
